From: patent US7410974B2

Tested on: E. coli ATCC 25922
ASSAY TEXT: MIC broth microdilution (NCCLS)
Assay type: cell-based, Escherichia coli
MEASUREMENT SETUP: Escherichia coli, ATCC25922, E. coli ATCC 25922 (Reference); read-out: MIC
QUANTITY KIND: MIC (µg/mL)
The figure you give is taken to be in µg/mL; do not add the unit.

// worked examples, MIC included
>>> meas_value("CC[C@H]1OC(=O)[C@H](C)[C@@H](O[C@H]2C[C@@](C)(OC)[C@@H](O)[C@H](C)O2)[C@H](C)[C@@H](O[C@@H]2O[C@H](C)C[C@H](N(C)C)[C@H]2O)[C@](C)(O)C[C@@H](C)C(=O)[C@H](C)[C@@H](O)[C@]1(C)O")
64
>>> meas_value("C[C@@H](O)[C@H]1C(=O)N2C(C(=O)O)=C(SCCN=CN)C[C@H]12")
0.12
>>> meas_value("CCn1cc(C(=O)O)c(=O)c2cc(F)c(N3CCNCC3)cc21")
0.03

Next compound, please.
Request: GET /values?readout=MIC&system=E. coli ATCC 25922&item= O=C(N[C@H](CO)[C@H](O)c1ccc([N+](=O)[O-])cc1)C(Cl)Cl
Response: 4

====

Measured MBC by item
Tested on: H. influenzae ATCC 49247
ASSAY TEXT: Minimal Bactericidal Concentration (MBC)
Format: cell-based
MEASUREMENT SETUP: Haemophilus influenzae, ATCC49247, 99.9% killing

Consider the reported MBC for these molecules:
>>> meas_value("CO/N=C(\\C(=O)N[C@@H]1C(=O)N2C(C(=O)O)=C(COC(C)=O)CS[C@H]12)c1csc(N)n1 [Cefotaxime]")
"0.12 µg/mL"
>>> meas_value("CC1(C)S[C@@H]2[C@H](NC(=O)[C@H](N)c3ccccc3)C(=O)N2[C@H]1C(=O)O [Ampicillin]")
"4 µg/mL"

Request: Identify the measured MBC of O=[N+]([O-])c1ccc(C=Cc2nc(Nc3ccc(O)cc3)c3cc(F)ccc3n2)o1 [Compound V] for H. influenzae ATCC 49247.
Response: 0.06 µg/mL

Request: Form entry - test system: H. influenzae ATCC 49247; read-out: MBC; molecule: CC[C@H]1OC(=O)[C@H](C)[C@@H](O[C@H]2C[C@@](C)(OC)[C@@H](O)[C@H](C)O2)[C@H](C)[C@@H](O[C@@H]2O[C@H](C)C[C@H](N(C)C)[C@H]2O)[C@](C)(O)C[C@@H](C)C(=O)[C@H](C)[C@@H](O)[C@]1(C)O [Erythromycin]
Response: 2 µg/mL

Request: // fetch H. influenzae ATCC 49247 MBC for C[C@@H](O)[C@H]1C(=O)N2C(C(=O)O)=C(S[C@@H]3CN[C@H](C(=O)N(C)C)C3)[C@H](C)[C@H]12 [Meropenem]
Response: 0.06 µg/mL

====

Tested on: E. coli ATCC 25922
ASSAY TEXT: MIC broth microdilution (NCCLS)
Format: cell-based, Escherichia coli
MEASUREMENT SETUP: Escherichia coli, ATCC25922, E. coli ATCC 25922 (Reference); read-out: MIC
Procedure: Minimal Inhibitory Concentration (MIC) Determination. Bacteria (primary strain panel, TABLE 1). Susceptibility tests were performed following the recommendations from the National Committee for Clinical Standards (NCCLS). The MICs were determined by a broth microdilution technique using a final volume of 100 μl of cation-adjusted Mueller Hinton Broth (MHBCA) and a bacterial inoculum of 10^5-10^6 Colony Forming Units (CFU)/ml. […] The CFU were counted after an incubation of 24 h at 35° C. […]
QUANTITY KIND: MIC (µg/mL)
# output: bare number, implied unit µg/mL

>>> meas_value("O=C1CN(/N=C/c2ccc([N+](=O)[O-])o2)C(=O)N1 [Nitrofurantoin]")
8

Request: What measured MIC goes with O=[N+]([O-])c1ccc(C=Cc2nc(Nc3ccc(O)cc3)c3cc(F)ccc3n2)o1 [Compound V] ?
Response: 0.5

Request: Which MIC is reported for this molecule? CO[C@H]1/C=C/O[C@@]2(C)Oc3c(C)c(O)c4c(O)c(c(/C=N/N5CCN(C)CC5)c(O)c4c3C2=O)NC(=O)/C(C)=C\C=C\[C@H](C)[C@H](O)[C@@H](C)[C@@H](O)[C@@H](C)[C@H](OC(C)=O)[C@@H]1C [Rifampicin]
Response: 8

====

Test system: MRSA strain Sa234c
ASSAY TEXT: MIC broth microdilution, antibiotic resistant strain panel
Format: cell-based, Staphylococcus aureus
MEASUREMENT SETUP: Staphylococcus aureus; multi-resistant MRSA strain Sa234c; read-out: MIC
QUANTITY KIND: MIC

Worked examples follow.
>>> meas_value("CC[C@H]1OC(=O)[C@H](C)[C@@H](O[C@H]2C[C@@](C)(OC)[C@@H](O)[C@H](C)O2)[C@H](C)[C@@H](O[C@@H]2O[C@H](C)C[C@H](N(C)C)[C@H]2O)[C@](C)(O)C[C@@H](C)C(=O)[C@H](C)[C@@H](O)[C@]1(C)O [Erythromycin]")
"> 32 µg/mL"
>>> meas_value("O=[N+]([O-])c1ccc(C=Cc2nc(Nc3ccc(O)cc3)c3cc(F)ccc3n2)o1 [Compound V]")
"≤ 0.06 µg/mL"
>>> meas_value("CCn1cc(C(=O)O)c(=O)c2cc(F)c(N3CCNCC3)cc21 [Norfloxacin]")
"> 32 µg/mL"
>>> meas_value("O=C1CN(/N=C/c2ccc([N+](=O)[O-])o2)C(=O)N1 [Nitrofurantoin]")
"16 to 32 µg/mL"

Now consider the entry below.
Request: # get_value(readout='MIC', item= CN1CCN(c2cc3nc(C=Cc4ccc([N+](=O)[O-])o4)nc(Nc4ccc(O)cc4)c3cc2F)CC1 [Compound XV] )
Response: 2 µg/mL

====

A collection of compounds and their measured MIC
Tested on: MRSA strain Sa211c
ASSAY TEXT: MIC broth microdilution, antibiotic resistant strain panel
Type: cell-based, Staphylococcus aureus
MEASUREMENT SETUP: Staphylococcus aureus; multi-resistant MRSA strain Sa211c; read-out: MIC
Experimental: Minimal Inhibitory Concentration (MIC) Determination. Bacteria (primary strain panel, TABLE 1). Susceptibility tests were performed following the recommendations from the National Committee for Clinical Standards (NCCLS). The MICs were determined by a broth microdilution technique using a final volume of 100 μl of cation-adjusted Mueller Hinton Broth (MHBCA) and a bacterial inoculum of 10^5-10^6 Colony Forming Units (CFU)/ml. […] The CFU were counted after an incubation of 24 h at 35° C. […]

>>> meas_value("Cc1onc(-c2ccccc2)c1C(=O)N[C@@H]1C(=O)N2[C@@H]1SC(C)(C)[C@@H]2C(=O)O")
"16 to 32 µg/mL"
>>> meas_value("O=C1CN(/N=C/c2ccc([N+](=O)[O-])o2)C(=O)N1")
"16 to 32 µg/mL"
>>> meas_value("O=[N+]([O-])c1ccc(C=Cc2nc(Nc3ccc(O)cc3)c3cc(F)ccc3n2)o1")
"≤ 0.06 µg/mL"

Request: Form entry - test system: MRSA strain Sa211c; read-out: MIC; compound: CCn1cc(C(=O)O)c(=O)c2cc(F)c(N3CCNCC3)cc21
Response: > 32 µg/mL

Request: Please tell me: MIC of CC[C@H]1OC(=O)[C@H](C)[C@@H](O[C@H]2C[C@@](C)(OC)[C@@H](O)[C@H](C)O2)[C@H](C)[C@@H](O[C@@H]2O[C@H](C)C[C@H](N(C)C)[C@H]2O)[C@](C)(O)C[C@@H](C)C(=O)[C@H](C)[C@@H](O)[C@]1(C)O , system MRSA strain Sa211c?
Response: > 32 µg/mL

Request: # get_value(readout= MIC, system= MRSA strain Sa211c) for CN1CCN(c2cc3nc(C=Cc4ccc([N+](=O)[O-])o4)nc(Nc4ccc(O)cc4)c3cc2F)CC1
Response: 2 µg/mL

====

Test system: E. coli Ec118c (EIEC)
ASSAY TEXT: MIC broth microdilution, E. coli strains
Assay type: cell-based
MEASUREMENT SETUP: Escherichia coli, pathotype EIEC
QUANTITY KIND: MIC (µg/mL)
Enter your answer as a number in µg/mL; do not include the unit.

// known answers, use as guide
>>> meas_value("CN(C)[C@@H]1C(O)=C(C(N)=O)C(=O)[C@@]2(O)C(O)=C3C(=O)c4c(O)cccc4[C@@](C)(O)[C@H]3C[C@@H]12 [Tetracycline]")
4
>>> meas_value("O=C1CN(/N=C/c2ccc([N+](=O)[O-])o2)C(=O)N1 [Nitrofurantoin]")
16

Request: What does the data say about its MIC? Entry: O=[N+]([O-])c1ccc(C=Cc2nc(Nc3ccc(O)cc3)c3cc(F)ccc3n2)o1 [Compound V]
Response: 1
